Quick list: growth per entry.
Tested on: RXF 393 renal
Assay: NCI-60 one-dose screen, 48 h (100 = growth as untreated, 0 = no growth, -100 = all killed)
Conditions: 10 µM
About 83,000 compounds went through this panel and 20% of them were active in at least one assay; those are over-represented in the sample as a whole. The source made the active and inactive calls. How the source made its calls: active means growth percent below 10; inactive means the rest.
readout: growth

compound=O=C(/C=C/c1ccccc1)c1nc2ccccc2n1Cc1ccc(F)cc1 result="-89.3% (active)"
compound=CC[C@]12C=CCN3CC[C@@]4(c5ccc(OC)cc5N(C)[C@H]4[C@@](O)(C(=O)OC)[C@@H]1OC(=O)CCC[P+](C1CCCCC1)(C1CCCCC1)C1CCCCC1)[C@@H]32 result="-70.3% (active)"
compound=O=C(/C=C/c1ccc(Br)cc1)c1nc2ccccc2n1Cc1ccc(Br)cc1 result="-82% (active)"
compound=CC1=C(CCC=NNC(N)=O)C2=C(C)C3(CC3)[C@@](C)(O)C(=O)C2=C1 result="-80.8% (active)"
compound=COc1ccc2cc([C@H](C)C(=O)[Se]CCC#N)ccc2c1 result="-82.3% (active)"
compound=N#C[Se]CC(=O)Nc1cccc(C(F)(F)F)c1 result="-40.9% (active)"
compound=COc1cc2cc(C(=O)N3C[C@@H](CCl)c4c3cc(OC(=O)N3CCN(C)[C@@H]5CSSC[C@@H]53)c3ccccc43)[nH]c2c(OC)c1OC result="-80.7% (active)"
compound=COCCOCCOCCOc1ccc(-n2cc(CCCN(CCNc3ccnc4cc(Cl)ccc34)C(=O)CCC(=O)O[C@@H]3O[C@@H]4OC5(C)CC[C@H]6[C@H](C)CC[C@@H]([C@H]3C)[C@@]46OO5)nn2)cc1 result="33.6% (inactive)"
compound=CC1=C2C(=C[C@@](C)(COP(=O)(Oc3ccccc3)Oc3ccccc3)[C@@H]2O)C(=O)[C@@](C)(O)C12CC2 result="-95.6% (active)"
compound=COC(=O)c1ccc(-n2cc(CCCN(CCNc3ccnc4cc(Cl)ccc34)C(=O)CCC(=O)O[C@@H]3O[C@@H]4OC5(C)CC[C@H]6[C@H](C)CC[C@@H]([C@H]3C)[C@@]46OO5)nn2)cc1 result="34.2% (inactive)"
compound=O=C(/C=C/c1ccc(Cl)cc1Cl)c1nc2ccccc2n1Cc1ccc(F)cc1 result="32.4% (inactive)"
compound="CC12OOC(C)(OO1)C2CCC(=O)NCCNc1ccnc2cc(Cl)ccc12 (stereo not given)" result="102% (inactive)"
compound=C=CC[Se]C(=O)c1cncc(C(=O)[Se]CC=C)c1 result="-91.9% (active)"
compound=COC(=O)C[C@](O)(CCCC(C)C)C(=O)O[C@H]1C(OC)=C[C@@]23CCCN2CCc2cc4c(cc2[C@@H]13)OCO4 result="-8.52% (active)"
compound="Cc1c2oc3c(C)ccc(C(=O)N[C@@H]4C(=O)N[C@H](C(C)C)C(=O)N5CCC[C@H]5C(=O)N(C)CC(=O)N(C)[C@@H](C(C)C)C(=O)OC4C)c3nc-2c(C(=O)N[C@@H]2C(=O)N[C@H](C(C)C)C(=O)N3CC(=O)C[C@H]3C(=O)N(C)CC(=O)N(C)[C@@H](C(C)C)C(=O)OC2C)c(N)c1=O (stereo not given in full)" result="-78.8% (active)"
compound=CC(C)N=C([Se])NC(=O)c1ccccc1 result="-83.7% (active)"
compound=O=C(/C=C/c1ccco1)c1nc2ccccc2n1Cc1ccc(F)cc1 result="33.3% (inactive)"
compound=O=C(/C=C/c1cccc(Br)c1)c1nc2ccccc2n1Cc1ccc(Br)cc1 result="-81.2% (active)"
compound=O=C(/C=C/c1ccc(F)cc1)c1nc2ccccc2n1Cc1ccc(Br)cc1 result="-91.1% (active)"
compound=C[C@H]1[C@H](OC(=O)CCC(=O)Nc2cnccn2)O[C@@H]2OC3(C)CC[C@H]4[C@H](C)CC[C@@H]1[C@@]24OO3 result="49% (inactive)"

###

Test system: HOP-92 NSCLC
Assay: NCI-60 one-dose screen, 48 h (100 = growth as untreated, 0 = no growth, -100 = all killed)
Settings: 10 µM
This is part of a sample that, as a whole, favours compounds with a hit. Of some 83,000 tested, about 20% had one in any assay.
Quick list: growth per entry.
readout: growth (%)

molecule="CC12OOC(C)(OO1)C2CCC(=O)NCCCNc1ccnc2cc(Cl)ccc12 (stereo not drawn)" readout=growth numeric_value=4.9
molecule=COc1ccc(/C=C/C(=O)c2nc3ccccc3n2Cc2ccc(Br)cc2)cc1 readout=growth numeric_value=64.2
molecule=COc1ccc(OC)c(/C=C/C(=O)c2nc3ccccc3n2Cc2ccc(F)cc2)c1 readout=growth numeric_value=-11
molecule=CC[C@]12C=CCN3CC[C@@]4(c5ccc(OC)cc5N(C)[C@H]4[C@@](O)(C(=O)OC)[C@@H]1OC(=O)CCC[P+](C1CCCCC1)(C1CCCCC1)C1CCCCC1)[C@@H]32 readout=growth numeric_value=-43.8
molecule=Cc1ccc2[nH]c(=S)n(-c3ccc(F)cc3)c(=O)c2c1 readout=growth numeric_value=77.2
molecule=CC[C@@]12CC(C(=O)OC)=C3Nc4cc5c(cc4[C@@]34CCN(C[C@H]3O[C@H]31)[C@@H]24)[C@@H]1[C@H](O5)[C@@H](O)[C@@]2(CC)CC(C(=O)OC)=C3Nc4cc(OC)ccc4[C@@]34CCN1[C@@H]24 readout=growth numeric_value=21.2
molecule=C#CCCCN(CCNc1ccnc2cc(Cl)ccc12)C(=O)CCC(=O)O[C@@H]1O[C@@H]2OC3(C)CC[C@H]4[C@H](C)CC[C@@H]([C@H]1C)[C@@]24OO3 readout=growth numeric_value=27.3
molecule=O=C(/C=C/c1ccc(Br)cc1)c1nc2ccccc2n1Cc1ccc(Br)cc1 readout=growth numeric_value=-11.1
molecule=CC(C)C[C@H](NC(=O)CNC(=O)C[C@H]1O[C@@H]2OC3(C)CC[C@H]4[C@H](C)CC[C@@H]([C@H]1C)[C@@]24OO3)B(O)O readout=growth numeric_value=-20.1
molecule=COc1cc(OC)c(S(=O)(=O)N(CCCl)CCCl)cc1C(=O)/C=C/c1ccc(C)cc1 readout=growth numeric_value=70.5
molecule=CC[C@]12C=CCN3CC[C@@]4(c5ccc(OC)cc5N(C)[C@H]4[C@@](O)(C(=O)OC)[C@@H]1OC(=O)CCCC[P+](c1ccc(OC)cc1)(c1ccc(OC)cc1)c1ccc(OC)cc1)[C@@H]32 readout=growth numeric_value=-74.5
molecule="O=C([Se]C1C=CCCC1)c1ccc(C(=O)[Se]C2C=CCCC2)s1 (stereo not drawn)" readout=growth numeric_value=-39.7
molecule=COCCOCCOCCOc1ccc(-n2cc(CCCN(CCNc3ccnc4cc(Cl)ccc34)C(=O)CCC(=O)O[C@@H]3O[C@@H]4OC5(C)CC[C@H]6[C@H](C)CC[C@@H]([C@H]3C)[C@@]46OO5)nn2)cc1 readout=growth numeric_value=19.3
molecule=COc1cc2cc(C(=O)N3C[C@@H](CCl)c4c3cc(OC(=O)N3CCN(C)[C@@H]5CSSC[C@@H]53)c3ccccc43)[nH]c2c(OC)c1OC readout=growth numeric_value=-4.54
molecule=COc1ccc2cc([C@H](C)C(=O)[Se]CCC#N)ccc2c1 readout=growth numeric_value=-82.1
molecule=O=C(NC([Se])=NC1CCCCC1)c1ccccc1 readout=growth numeric_value=112
molecule=CC12CCC3(CCC(=O)NCCCNc4ccnc5cc(Cl)ccc45)[C@@](C)(OO[C@]3(C)O1)O2 readout=growth numeric_value=3.32
molecule=C#CC[Se]C(=O)c1ccc2n[se]nc2c1 readout=growth numeric_value=77
molecule=CC[C@]12C=CCN3CC[C@@]4(c5ccc(OC)cc5N(C)[C@H]4[C@@](O)(C(=O)OC)[C@@H]1OC(=O)CCC[P+](c1ccc(C)cc1)(c1ccc(C)cc1)c1ccc(C)cc1)[C@@H]32 readout=growth numeric_value=-83.2
molecule="CCOP(=O)(OCC)C(NC(C)=O)C(=O)SCCN (stereo not drawn)" readout=growth numeric_value=108
molecule=C=CC[Se]C(=O)c1ccc(C(=O)[Se]CC=C)s1 readout=growth numeric_value=-29.9
molecule=O=C(/C=C/c1ccco1)c1nc2ccccc2n1Cc1ccc(Br)cc1 readout=growth numeric_value=3.99
molecule=C[C@H]1[C@H](OC(=O)CCC(=O)Nc2cnccn2)O[C@@H]2OC3(C)CC[C@H]4[C@H](C)CC[C@@H]1[C@@]24OO3 readout=growth numeric_value=51.8
molecule=CC(=O)Oc1ccccc1C(=O)NC([Se])=NC1CCCCC1 readout=growth numeric_value=32
molecule=COc1cc(OC)c(S(=O)(=O)N(CCCl)CCCl)cc1C(=O)/C=C/c1cc(OC)c(OC)c(OC)c1 readout=growth numeric_value=9.15
molecule=CC(C)N=C([Se])NC(=O)c1ccccc1 readout=growth numeric_value=-34.3
molecule=O=C(/C=C/c1cccc(Br)c1)c1nc2ccccc2n1Cc1ccc(Br)cc1 readout=growth numeric_value=-48.8
molecule=C[C@H]1[C@H](OC(=O)CCC(=O)N(CCCc2cn(-c3ccc(CN4CCOCC4)cc3)nn2)CCNc2ccnc3cc(Cl)ccc23)O[C@@H]2OC3(C)CC[C@H]4[C@H](C)CC[C@@H]1[C@@]24OO3 readout=growth numeric_value=-9.61
